Below, each entry is listed alongside its reported SPOT peptide array binding signal intensity.
target: AgNbp2; assay: SPOT peptide array binding signal intensity (averaged, normalized) (arbitrary units (background-subtracted, floor 0; scale differs between SH3 domains)); higher = stronger binding of the SH3 domain to the peptide
metric: SPOT peptide array binding signal intensity

binder	measuredValue
KFIPSRPAPKPPSSA	11400
NLPKRKPPKLQGPFS	247
WRPRIVPILPYITRL	140
KMSRSPPRPPSLKII	1350
ALRRRLPVTRSKINW	346
GERSRPLVISILSSA	25
TKIRRRPQQPLTDFT	6
